B1: Azoarcus group I ribozyme (parent)
chain: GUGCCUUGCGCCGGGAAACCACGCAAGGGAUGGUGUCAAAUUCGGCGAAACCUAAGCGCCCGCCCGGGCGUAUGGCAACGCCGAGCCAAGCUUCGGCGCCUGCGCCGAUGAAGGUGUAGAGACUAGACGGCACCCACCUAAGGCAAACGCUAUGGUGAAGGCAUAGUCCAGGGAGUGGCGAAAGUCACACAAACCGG

variants of: B1; assay: reverse-splicing fitness (ratio to wild type); higher = more active; in vitro selection; Mg2+ level not given
Please go through the items and note down their reverse-splicing fitness.
One number for each entry.

Check out these entries, answers already filled in.
{"columns": ["MUTATION", "NUMERIC_RESULT"],
 "data": [
  ["C82G A111U A120G A145G C150U C169A U176G", 0.00683],
  ["C82U A120C A145G C150U C169A", 0.0101],
  ["C82G A145G C150G C169U U176G", 0.0072]
]}

For the next question, use this variant.
### Prompt So what does the record say about reverse-splicing fitness for C82A A120G C150U C169U U176G ?
### Response 0.0068
